TESTED_ON: Cx43 HCs (Homo sapiens)
Construct: expressed in transfected cells
Sequence (P17302 whole entry): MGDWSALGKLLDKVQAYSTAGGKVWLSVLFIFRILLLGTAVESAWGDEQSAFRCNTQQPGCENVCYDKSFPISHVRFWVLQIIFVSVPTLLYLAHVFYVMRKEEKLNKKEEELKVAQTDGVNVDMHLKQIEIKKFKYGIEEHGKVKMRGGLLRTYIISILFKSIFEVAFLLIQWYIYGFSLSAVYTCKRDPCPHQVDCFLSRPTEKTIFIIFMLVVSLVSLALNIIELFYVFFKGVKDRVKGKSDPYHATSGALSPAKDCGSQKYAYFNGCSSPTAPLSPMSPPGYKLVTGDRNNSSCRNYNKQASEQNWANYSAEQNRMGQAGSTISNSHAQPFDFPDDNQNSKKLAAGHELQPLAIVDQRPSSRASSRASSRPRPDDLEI
METHOD_SUMMARY: Cx43-dependent growth complementation assay in E. coli LB2003
Format: cell-based
ASSAY_CONDITIONS: 15 μM; K members, the 21st table; read-out: Cx43 % inhibition
ASSAY_READOUT: inhibition at 15 µM (%)
Report only the number, with the unit % understood.

The cases that follow already have their inhibition at 15 µM on record.
# MOLECULE, TESTED_ON, EXPERIMENTAL_RESULT
measured = [
    ("COc1ccc(OC[C@H]2OC(OC3C(N)CC(N)C(O[C@H]4OC(CN)[C@@H](O)C(O)C4O)[C@@H]3O)[C@H](O)C(N)C2O)cc1 (some centres unmarked)", "Cx43 HCs (Homo sapiens)", 20),
    ("NCC1O[C@H](OC2C(N)CC(N)C(OC3O[C@H](CNC(=O)c4ccccc4-c4c5ccc(=O)cc-5oc5cc(O)ccc45)C(O)C(N)[C@H]3O)[C@H]2O)C(O)C(O)[C@@H]1O (some centres unmarked)", "Cx43 HCs (Homo sapiens)", 45.3),
    ("Cc1ccc(OC[C@H]2OC(OC3C(N)CC(N)C(O[C@H]4OC(CN)[C@@H](O)C(O)C4O)[C@@H]3O)[C@H](O)C(N)C2O)cc1 (some centres unmarked)", "Cx43 HCs (Homo sapiens)", 58.4),
    ("NCC1O[C@H](O[C@@H]2C(N)C[C@@H](N)C(O[C@H]3OC(COc4ccc(-c5nc6ccccc6[nH]5)cc4)[C@@H](O)C(N)C3O)C2O)C(O)C(O)[C@@H]1O (some centres unmarked)", "Cx43 HCs (Homo sapiens)", 8.9),
    ("NCC1O[C@H](OC2C(N)CC(N)C(OC3O[C@H](COc4ccc([N+](=O)[O-])cc4)C(O)C(N)[C@H]3O)[C@H]2O)C(O)C(O)[C@@H]1O (some centres unmarked)", "Cx43 HCs (Homo sapiens)", 36.5),
]

# get_value(readout='inhibition at 15 µM', item= NCC1O[C@H](OC2C(N)CC(N)C(OC3O[C@H](COc4ccccc4)C(O)C(N)[C@H]3O)[C@H]2O)C(O)C(O)[C@@H]1O (some centres unmarked) )
36

# get_value(readout='inhibition at 15 µM', item= NCC1O[C@H](OC2C(N)CC(N)C(OC3O[C@H](COc4ccc(Cl)cc4)C(O)C(N)[C@H]3O)[C@H]2O)C(O)C(O)[C@@H]1O (some centres unmarked) )
45.8

Would you kindly share the measured inhibition at 15 µM for Cc1ccc(S(=O)(=O)OC[C@H]2OC(OC3C(N)CC(N)C(O[C@H]4OC(CN)[C@@H](O)C(O)C4O)[C@@H]3O)[C@H](O)C(N)C2O)cc1 (some centres unmarked) ?
38.1

----------
inhibition at 15 µM values, listed per item
TESTED_ON: human Cx26 HCs (Homo sapiens)
Construct: expressed in transfected cells; host or cells: E. coli LB2003 (carrying pREP4), transformed with pQE-Cx26, IPTG-induced
METHOD_SUMMARY: Cx26-dependent growth complementation assay in E. coli LB2003
Type: cell-based
ASSAY_CONDITIONS: 15 μM; Table 3
I'd appreciate it if you wrote the number followed by its unit.

# COMPOUND, inhibition at 15 µM
records = [
    ("Cc1ccc(OC[C@H]2OC(OC3C(N)CC(N)C(O[C@H]4OC(CN)[C@@H](O)C(O)C4O)[C@@H]3O)[C@H](O)C(N)C2O)cc1 (stereo partly drawn) [Compound K82]", "19.3%"),
    ("NCC1O[C@H](OC2C(N)CC(N)C(OC3O[C@H](CNC(=O)c4ccccc4-c4c5ccc(=O)cc-5oc5cc(O)ccc45)C(O)C(N)[C@H]3O)[C@H]2O)C(O)C(O)[C@@H]1O (stereo partly drawn) [Compound K40]", "37.1%"),
]

Now take the following compound into account.
For NCC1O[C@H](OC2C(N)CC(N)C(OC3O[C@H](COc4ccc(Cl)cc4)C(O)C(N)[C@H]3O)[C@H]2O)C(O)C(O)[C@@H]1O (stereo partly drawn) [Compound K84] , what is its reported inhibition at 15 µM?
44.4%
